Here's a roundup of pIC50 values tested on UniProt:Q9GZT9, taken from various published works.
Scale for pIC50: -log10 of concentration given in mol/L; no unit attached.

Example cases with answers are listed next.
| MOLECULE | pIC50 |
| --- | --- |
| CC1CCCC(n2ncc3nc(-n4cc(C(=O)O)cn4)nc(O)c32)C1 (single isomer, unassigned) | 7.27 |
| O=C(O)c1cnn(-c2nc(O)c3c(cnn3CCc3ccc(-c4ccccc4)cc3)n2)c1 | 8.22 |
| O=C(O)c1cnn(-c2nc(O)c3c(cnn3CCC(c3ccccc3)c3ccccc3)n2)c1 | 7.64 |
| Cc1ccc(F)c(C(C)n2ncc3nc(-n4cc(C(=O)O)cn4)nc(O)c32)c1 (stereo not shown) | 7.40 |
| Cc1cc(C(C2CC2)n2ncc3nc(-n4cc(C(=O)O)cn4)nc(O)c32)ccc1F (single isomer, unassigned) | 7.18 |
| COc1ccc([C@H](C)n2ncc3nc(-n4cc(C(=O)O)cn4)nc(O)c32)cc1 | 7.32 |
| Cc1nn([C@@H](C)c2ccc(C(F)(F)F)cc2)c2c(O)nc(-n3cc(C(=O)O)cn3)nc12 | 7.74 |
| COc1ccc(-c2ccc(C(C)(C)NC(=O)c3cnc(C(=O)NCC(C)C(=O)O)nc3O)cc2)cn1 (single isomer, unassigned) | 8.47 |

Q: Sample `CC[C@@H](c1ccc(C)c(F)c1)n1ncc2nc(-n3cc(C(=O)O)cn3)nc(O)c21` — what was its pIC50?
Result: 7.28

Q: Sample `CCn1c2c(c(O)c(C(=O)NCC(=O)O)c1=O)COCC2` — what was its pIC50?
Result: 7.11

###

Here's a roundup of IC50 values tested on human HIF-PHD2 (Homo sapiens, UniProt Q9GZT9), taken from various published works.

| MOLECULE | ASSAY_SYSTEM | ATTRIBUTE_MEASURED | VALUE_MEASURED |
| --- | --- | --- | --- |
| Cn1c(=O)c(C(=O)NCC(=O)O)c(O)c2ncc(C#N)cc21 | human HIF-PHD2 (Homo sapiens, UniProt Q9GZT9) | IC50 | < 50 nM |
| Cn1c(=O)c(C(=O)NCC(=O)O)c(O)c2cc(-c3ccccc3C(N)=O)cnc21 | human HIF-PHD2 (Homo sapiens, UniProt Q9GZT9) | IC50 | 50 to 100 nM |
| O=C(O)CNC(=O)c1ncc(C(=O)NCc2cccc3ccccc23)c(O)n1 | human HIF-PHD2 (Homo sapiens, UniProt Q9GZT9) | IC50 | 20 to 100 nM |

Q: Sample `Cn1c(=O)c(C(=O)NCC(=O)O)c(O)c2ccnc(Cl)c21` — what was its IC50?
Result: 50 to 100 nM

Q: Sample `CCOC(=O)CNC(=O)c1ncc(C(=O)NC(c2ccc(F)cc2)c2ccc(F)cc2)c(O)n1` — what was its IC50?
Result: 0.5 to 20 nM

Q: Sample `C[C@H](NC(=O)c1c(O)c2ccc(C(F)(F)F)nc2[nH]c1=O)C(=O)O` — what was its IC50?
Result: 100 to 500 nM

Q: Sample `CC1(C)C(=O)C(C(=O)CCC(=O)O)=C(O)c2ccc(F)c(F)c21` — what was its IC50?
Result: 100 to 500 nM

Q: Sample `CC(C)C#Cc1cnc2c(O)c(C(=O)NCC(=O)O)c(=O)n(C)c2c1` — what was its IC50?
Result: < 50 nM

Q: Sample Cc1cc(C(C)n2ncc3nc(-n4cc(C(=O)O)cn4)nc(O)c32)ccc1F (single isomer, unassigned) — what was its IC50?
Result: 50 nM
